Below: compounds with IC50 recorded for Dipeptidyl peptidase 8 (Homo sapiens) in separate published works.

- Smiles Input: "COC(=O)[C@@H](NC(=O)c1cc2nc(N3CCC[C@@H](N)C3)n(Cc3ccccc3C#N)c(=O)c2s1)C(C)C"
  Qualifier Symbol: "="
  IC50 / µM: 43.1
- Smiles Input: "N#Cc1ccccc1Cn1c(N2CCC[C@@H](N)C2)nc2cc(CO)sc2c1=O"
  Qualifier Symbol: "="
  IC50 / µM: 27
- Smiles Input: "N#Cc1ccccc1Cn1c(N2CCC[C@@H](N)C2)nc2c(C(=O)NCC3CC3)csc2c1=O"
  Qualifier Symbol: "="
  IC50 / µM: 9.08
- Smiles Input: "CC(C)[C@H](NC(=O)OCc1ccc(NC(=O)[C@@H]2CC(F)(F)CN2C(=O)CNC(=O)c2ccnc3ccccc23)cc1)C(=O)N1CCC[C@H]1B(O)O"
  Qualifier Symbol: "="
  IC50 / µM: 7.3
- Smiles Input: "CCCCNC(=O)c1cc2nc(N3CCC[C@@H](N)C3)n(Cc3ccccc3C#N)c(=O)c2s1"
  Qualifier Symbol: "="
  IC50 / µM: 63.2
- Smiles Input: "N#Cc1ccccc1Cn1c(N2CCC[C@@H](N)C2)nc2cc(C(=O)N[C@H]3CCOC3=O)sc2c1=O"
  Qualifier Symbol: "="
  IC50 / µM: 52.7
- Smiles Input: "N#Cc1ccccc1Cn1c(N2CCC[C@@H](N)C2)nc2c(C(=O)NC3CC3)csc2c1=O"
  Qualifier Symbol: "="
  IC50 / µM: 44.8
- Smiles Input: "COC(=O)[C@@H]1CCCN1C(=O)c1cc2nc(N3CCC[C@@H](N)C3)n(Cc3ccccc3C#N)c(=O)c2s1"
  Qualifier Symbol: "="
  IC50 / µM: 15.5
- Smiles Input: "C[C@@]1(NCC(=O)N2C[C@@H](F)C[C@H]2C#N)C[C@H]2C[C@@H](O)C[C@H]2C1"
  Qualifier Symbol: "="
  IC50 / µM: 3.92
- Smiles Input: "CS(=O)(=O)CCNC(=O)c1cc2nc(N3CCC[C@@H](N)C3)n(Cc3ccccc3C#N)c(=O)c2s1"
  Qualifier Symbol: "="
  IC50 / µM: 55.9
- Smiles Input: "N#Cc1ccccc1Cn1c(N2CCC[C@@H](N)C2)nc2c(C(=O)NCCCO)csc2c1=O"
  Qualifier Symbol: "="
  IC50 / µM: 60.7
- Smiles Input: "N#Cc1ccccc1Cn1c(N2CCC[C@@H](N)C2)nc2c(C(=O)NC3CCCCC3)csc2c1=O"
  Qualifier Symbol: "="
  IC50 / µM: 25.7
- Smiles Input: "Cc1cc(N2CC[C@@H](N)C2)c2c(n1)n(C)c(=O)n2Cc1ccccc1C#N"
  Qualifier Symbol: ">"
  IC50 / µM: 100
- Smiles Input: "CCn1c(=O)n(Cc2ccccc2C#N)c2c(N3CCC[C@@H](N)C3)cc(C)nc21"
  Qualifier Symbol: ">"
  IC50 / µM: 100
- Smiles Input: "Cn1c(=O)n(Cc2ccccc2C#N)c2c(N3CCC[C@@H](N)C3)cc(C(=O)O)nc21"
  Qualifier Symbol: ">"
  IC50 / µM: 100
- Smiles Input: "CCO[C@@H]1C[C@@H]2C[C@@](C)(NCC(=O)N3C[C@@H](F)C[C@H]3C#N)C[C@@H]2C1"
  Qualifier Symbol: "="
  IC50 / µM: 2.67
- Smiles Input: "Cc1cc(N2CCC[C@@H](NCc3ccccc3C#N)C2)c2c(n1)n(C)c(=O)n2Cc1ccccc1C#N"
  Qualifier Symbol: ">"
  IC50 / µM: 100
- Smiles Input: "N#Cc1ccccc1Cn1c(N2CCC[C@@H](N)C2)nc2c(C(=O)NCCO)csc2c1=O"
  Qualifier Symbol: "="
  IC50 / µM: 36.8
- Smiles Input: "CCCCNC(=O)c1csc2c(=O)n(Cc3ccccc3C#N)c(N3CCC[C@@H](N)C3)nc12"
  Qualifier Symbol: "="
  IC50 / µM: 49.4
- Smiles Input: "COCCNC(=O)c1csc2c(=O)n(Cc3ccccc3C#N)c(N3CCC[C@@H](N)C3)nc12"
  Qualifier Symbol: "="
  IC50 / µM: 18.4
- Smiles Input: "CO[C@H]1C[C@@H]2C[C@@](C)(NCC(=O)N3C[C@@H](F)C[C@H]3C#N)C[C@@H]2C1"
  Qualifier Symbol: "="
  IC50 / µM: 0.9
- Smiles Input: "CC(C)CNC(=O)c1csc2c(=O)n(Cc3ccccc3C#N)c(N3CCC[C@@H](N)C3)nc12"
  Qualifier Symbol: "="
  IC50 / µM: 47
- Smiles Input: "CC(C)NC(=O)c1csc2c(=O)n(Cc3ccccc3C#N)c(N3CCC[C@@H](N)C3)nc12"
  Qualifier Symbol: "="
  IC50 / µM: 30.1
- Smiles Input: "CCO[C@@H]1C[C@@H]2C[C@@](C)(NCC(=O)N3CCC[C@H]3C#N)C[C@@H]2C1"
  Qualifier Symbol: "="
  IC50 / µM: 18.2
- Smiles Input: "CO[C@@H]1C[C@@H]2C[C@@](C)(NCC(=O)N3CCC[C@H]3C#N)C[C@@H]2C1"
  Qualifier Symbol: "="
  IC50 / µM: 50.5
- Smiles Input: "CCOC(=O)CCNC(=O)c1csc2c(=O)n(Cc3ccccc3C#N)c(N3CCC[C@@H](N)C3)nc12"
  Qualifier Symbol: "="
  IC50 / µM: 54.9
- Smiles Input: "CC(=O)Nc1csc2c(=O)n(Cc3ccccc3C#N)c(N3CCC[C@@H](N)C3)nc12"
  Qualifier Symbol: "="
  IC50 / µM: 318
- Smiles Input: "N#Cc1ccccc1Cn1c(N2CCC[C@@H](N)C2)nc2c(N)csc2c1=O"
  Qualifier Symbol: "="
  IC50 / µM: 62
- Smiles Input: "CNC(=O)c1csc2c(=O)n(Cc3ccccc3C#N)c(N3CCC[C@@H](N)C3)nc12"
  Qualifier Symbol: "="
  IC50 / µM: 45.9
- Smiles Input: "CCc1cc(N2CCC[C@@H](N)C2)c2c(n1)n(C)c(=O)n2Cc1ccccc1C#N"
  Qualifier Symbol: ">"
  IC50 / µM: 100
